Kindly supply the reported protein stability index values for the records listed here.
Test system: Saccharomyces cerevisiae
Assay: protein stability index of tFT-peptide fusion (C-terminal peptide) (PSI (0-1 scale)); higher = more stable (slower turnover)
Details: genetic background: das1 deletion; temperature: 30 C
Reply: number alone, nothing else.

protein stability index in this record for ADVRYPNIDDYL [HCS1 C-terminal 12 aa] : 0.735

Reported protein stability index ( EIKHVFTGVYGG [ASP1 C-terminal 12 aa] ) = 0.68

For reference, reported protein stability index for VPRFKDIFDDLS [DOA1 C-terminal 12 aa] stands at 0.731

# protein stability index of ENLENKINNLSK [STF1 C-terminal 12 aa] = 0.709

Summary for this sequence, HIDIPDFSKWDV [SUL1 C-terminal 12 aa] : protein stability index is 0.741

Note to self: protein stability index recorded for RKRKQSKSGLLL [NOP8 C-terminal 12 aa] was 0.723

Kindly note the recorded protein stability index for LLEKLDIKDKKE [YVC1 C-terminal 12 aa] , which is 0.661

The recorded protein stability index for GINLNISYSSGK [ULI1 C-terminal 12 aa] is 0.706

Form: sequence = VSLKKGKLKAHC [YAP7 C-terminal 12 aa] ; protein stability index = 0.673

Record summary for LASKHSQYTSPQ [RGT2 C-terminal 12 aa] : reported protein stability index = 0.72

Looking up GGLHFHGESFAL [FRE8 C-terminal 12 aa] , I see its protein stability index listed as 0.699

The reported value for QNQDEPITENFE [TUB2 C-terminal 12 aa] in terms of protein stability index is 0.718

====

What protein stability index was measured for each of the following?
Tested on: Saccharomyces cerevisiae
Assay: protein stability index of tFT-peptide fusion (C-terminal peptide) (PSI (0-1 scale)); higher = more stable (slower turnover)
Conditions: genetic background: wild type; temperature: 30 C
Just the number, please, no unit attached.

Entry DQATEPTPKPPD : protein stability index on Saccharomyces cerevisiae = 0.643

protein stability index on Saccharomyces cerevisiae for VVLVLLCIGRLL is 0.376

Saccharomyces cerevisiae data for GAATKRKYTINT ; its protein stability index: 0.665

Reported Saccharomyces cerevisiae protein stability index for item SSPSYVPVSYSQ was 0.708

Record VNENNQKGNKKT has Saccharomyces cerevisiae protein stability index equal to 0.654

The observed protein stability index for NKNDINRMVQVS when tested with Saccharomyces cerevisiae stands at 0.675

Case IGWCPASFMVIG , Saccharomyces cerevisiae, protein stability index recorded as 0.585

Measured protein stability index (Saccharomyces cerevisiae), entry WVRLITCVRCSR : 0.594

Measured protein stability index for this entry PITSPPQVLLQH on Saccharomyces cerevisiae: 0.686

For SLLTSGSLTLFV on Saccharomyces cerevisiae, measured protein stability index was 0.71

====

Test system: Saccharomyces cerevisiae
Assay: protein stability index of tFT-peptide fusion (C-terminal peptide) (PSI (0-1 scale)); higher = more stable (slower turnover)
Settings: genetic background: wild type; temperature: 30 C
Exercise: state measured protein stability index for each of the sequences provided.

// protein stability index lookup, sequence = GSYSIVDRTPLF , result: 0.568

Just so you know, measured protein stability index for GGLLLPCGAFGG came out at 0.673

Lab note: measured protein stability index of LMRGLYAIPGKF was 0.776

Data point: LVVALGFDDRAC ; protein stability index = 0.623

Data point: VVWIQRTVLSLI ; protein stability index = 0.27

The reported protein stability index of the sequence ASGIYSRFSTSS was 0.624

protein stability index in this record for DWYLVGGRVFWV : 0.721

Notebook: LSPVRRAPCPLG , protein stability index read as 0.691

protein stability index for PPLSPPPSASSS is 0.738

For TWAVTGDLLITR the sequence record lists protein stability index as 0.815

====

Can you tell me protein stability index for the items I'm about to list?
System: Saccharomyces cerevisiae
Assay: protein stability index of tFT-peptide fusion (C-terminal peptide) (PSI (0-1 scale)); higher = more stable (slower turnover)
Settings: genetic background: wild type; temperature: 30 C
API note: the answer field is a bare number with no unit suffix.

Measured on Saccharomyces cerevisiae, SAQPELPNIAPA has a documented protein stability index of 0.636

Summary: RRKGGEERKLKK , Saccharomyces cerevisiae, protein stability index = 0.629

# protein stability index measured on Saccharomyces cerevisiae for item IIIRVTILCEQF = 0.241

I looked up SPADALPLPGCG and its protein stability index for Saccharomyces cerevisiae was 0.707

Field protein stability index (system: Saccharomyces cerevisiae) for entry PLESRPHNAHQR = 0.663

Bench note, Saccharomyces cerevisiae: RATRLFPPPHFS , protein stability index reads 0.7

The value of protein stability index recorded for PPPPRHPAAAPP when tested on Saccharomyces cerevisiae reads 0.767

Form field protein stability index for item VVCVGSEVGEGG on Saccharomyces cerevisiae: 0.724

Form field, protein stability index with Saccharomyces cerevisiae, item ATPVPTPRPAAP : 0.729

Case PSLLPPATLLPI , Saccharomyces cerevisiae, protein stability index recorded as 0.718

Summary line: RWVGWGAWLSEV , Saccharomyces cerevisiae, reported protein stability index = 0.611

Recorded protein stability index for LPPPLPPLLPLP on Saccharomyces cerevisiae was 0.675

Reported Saccharomyces cerevisiae protein stability index for item GLRPPPLRPAPP was 0.704

Sample CAADYRRHLQRP , system: Saccharomyces cerevisiae. Its protein stability index is 0.669

The observed protein stability index for FLFGILFTSRAV when tested with Saccharomyces cerevisiae stands at 0.531

Entry SPPVPLSPPLSP ; assay system Saccharomyces cerevisiae; protein stability index recorded at 0.537

Reported Saccharomyces cerevisiae protein stability index for item PPLRQLTIPLTH was 0.723

Reported protein stability index (Saccharomyces cerevisiae) for entry PRYCVQQNPQDR is 0.722

Saccharomyces cerevisiae data for IFNYGGANFIYC ; its protein stability index: 0.714

====

Exercise: for every item that follows, state its recorded protein stability index.
Test system: Saccharomyces cerevisiae
Experiment: protein stability index of tFT-peptide fusion (C-terminal peptide) (PSI (0-1 scale)); higher = more stable (slower turnover)
Conditions: genetic background: wild type; temperature: 30 C

protein stability index for LLSPAPPLPPAP is 0.666

Quick note, protein stability index for SLLPILFPPPPF landed at 0.715

FLFCMIFIFRCF yielded protein stability index of 0.276

The recorded protein stability index for entry LDGAHLLLNTIP equals 0.687

Quick note, protein stability index for CCILTHFSSCET landed at 0.679

Kindly note the recorded protein stability index for GKKKVKEWKKQM , which is 0.604

// QYMDQIKGRSGT : protein stability index value = 0.723

Value of protein stability index reported for the sequence PPSPLPPAPPSP is 0.668

// field: protein stability index; key: FMVFCFPFTGVL ; value = 0.562

The recorded protein stability index for LVHHPCNTPRVP is 0.749

====

Would you mind telling me the reported protein stability index of each entry?
System: Saccharomyces cerevisiae
Assay: protein stability index of tFT-peptide fusion (C-terminal peptide) (PSI (0-1 scale)); higher = more stable (slower turnover)
Settings: genetic background: wild type; temperature: 30 C
Could you respond with only the numeric value?

The sequence VRGSPNVMWKSQ showed protein stability index equal to 0.398

Query GGGPAVEGLVGR yields protein stability index of 0.66

Looking up GKWFSWNAIWIR , I found its protein stability index recorded as 0.145

Looking up YTPEVSVFFFRT , I see its protein stability index listed as 0.623

So for HAPLIPRFALIP , the logged protein stability index turned out to be 0.677

Entry FSILYLLPPGPL , protein stability index reported as 0.663

Short answer for VWVISLCIGGVG : protein stability index was 0.314

The recorded protein stability index for entry VYEGIQEKTTRQ equals 0.575

For LRGVGAGPEDVG the sequence record lists protein stability index as 0.694

So, EGCYGVRGNTLH ? Its protein stability index was 0.612

Per the records, this sequence ( HDWPQTTRADQS ) has protein stability index equal to 0.677

Query EKKKKTKKEKKK yields protein stability index of 0.677

What the record says about VVWRRVIGGLVM : protein stability index is 0.637

RRRREKWSVVHR has a reported protein stability index of 0.758

// protein stability index lookup, sequence = FLCSRYRGYMPT , result: 0.632

The sequence listed as VVGAVVLRRGGP has a reported protein stability index of 0.67

Query RLLGLWGEVMGF yields protein stability index of 0.731

Reported protein stability index of GCRSFRNYKIGV : 0.641

Noted for AAHRRRRSPPRP : its protein stability index reads 0.591

protein stability index reported for this sequence RRRVADIYHGEK : 0.713

Measured protein stability index, WRRGMMGGLAIW : 0.698

// TVGVGWVWVGVL : protein stability index value = 0.467

Query FGSVGSIRTPDG yields protein stability index of 0.707

The sequence listed as NEVDSRGWTTLA has a reported protein stability index of 0.59

Item: DRRLPVSPPTIV | protein stability index: 0.774

GET /value?item= GLGTAFGAADTV &field=protein stability index returns 0.693

According to the records, this sequence RRGHMTRFTHSR displays protein stability index of 0.692

Kindly note the recorded protein stability index for LGRGRWSVLVVR , which is 0.529

# protein stability index of RESVLRVGCFQP = 0.742

// recorded protein stability index for LLFLVCFFPSIS : 0.454

What the record says about PVPPSLLHRPPF : protein stability index is 0.33

Per the record, PPLTSSPPFSPP has protein stability index of 0.728

Summary for this sequence, FFPSPHVPPPPP : protein stability index is 0.617

// PSTAPHLSPPPP : protein stability index value = 0.731

So, IILRPQYVHYFL ? Its protein stability index was 0.454

Lookup result for VCLVNWLCFFCV ; measured protein stability index: 0.529

Input EEVKRKSGGKSK . Output protein stability index: 0.662

For reference, reported protein stability index for STLAPRVYLRLR stands at 0.676

The reported value for SLPLPPLPYSRT in terms of protein stability index is 0.732

For this sequence ( SLSLHALPRPTT ), measured protein stability index is 0.655

Recorded protein stability index (sequence GYLPPPDSLSSS ): 0.672
